Reference for the values: patent US20110136733A1

- assay_system: T1, human recombinant GIP receptor (human, UniProt P48546 22-466)
- T1 construct: whole, on cells; Membranes of CHO-K1 cells expressing the receptor; also called hGIP receptor
- T1 sequence (looked up): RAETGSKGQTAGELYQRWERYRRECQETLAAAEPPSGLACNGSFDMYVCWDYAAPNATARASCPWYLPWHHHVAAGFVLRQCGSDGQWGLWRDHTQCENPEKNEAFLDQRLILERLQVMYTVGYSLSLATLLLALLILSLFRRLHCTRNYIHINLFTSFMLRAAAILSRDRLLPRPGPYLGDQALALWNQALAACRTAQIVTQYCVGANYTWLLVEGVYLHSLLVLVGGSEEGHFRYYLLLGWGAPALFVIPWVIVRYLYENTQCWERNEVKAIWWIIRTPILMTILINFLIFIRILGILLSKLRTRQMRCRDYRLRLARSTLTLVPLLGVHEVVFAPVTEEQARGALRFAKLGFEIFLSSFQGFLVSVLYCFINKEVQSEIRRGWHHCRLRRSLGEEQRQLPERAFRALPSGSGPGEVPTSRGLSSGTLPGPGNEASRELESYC
- protocol_notes: [125I]GIP competition, membranes of CHO-K1 cells expressing human GIP receptor
Where no end group is shown, it is not given here. [ ]: non-standard residue; d: D form. The star is where a group is joined. Psu = N-propylsuccinimide on the Cys sulfur (from N-propylmaleimide), CCCN1C(=O)CC(*)C1=O; Ac6c = NC1(C(=O)O)CCCCC1; Aib = CC(C)(N)C(=O)O
Threshold 2 nM. Ki below it: Condition met. Ki at it or above: Condition not met.

Does YAEGTFISDYXIAMDKIHQQDFVNWLLAQKGKKNDWKHNIXQ (D-Ala at 2; A5c at 11 and 41; C-terminal free acid, X stands for the non-natural residue) [(D-Ala^2, A5c^11, 41)hGIP(1-42)-OH] have Ki strictly under 2 nM?
Condition met

Quick one: YAEGTFISDYXIAMDKIHQQDFVNWLLAQKH (D-Ala at 2; A5c at 11; C-terminal amide, X stands for the non-natural residue) [(D-Ala^2, A5c^11, His^31)hGIP(1-31)-NH2]
Condition met

Quick one: Y[Aib]EGTF[Ac6c]SDYSIAMDKIHQQDFVNWLLAQKGKKNC(Psu)WKHNITQ-OH [[Aib^2, A6c^7, Cys(Psu)^35]hGIP(1-42)-OH]
Condition not met

Quick one: YXEGTFXSDYSIAXDKIHQQDFVNWLLAQK (A6c at 2 and 7; Nle at 14; C-terminal amide) [(A6c^2, 7, Nle^14)hGIP(1-30)-NH2]
Condition not met

Quick one: YGEGTFISDYXIAXDKIHQQDFVNWLLAQKGKKNDWKHNITQH (A5c at 11; Nle at 14; C-terminal free acid) [(Gly^2, A5c^11, Nle^14, His^43)hGIP(1-43)-OH]
Condition met

Quick one: YXEGTFXSDYSIAXDKIHQQDFVNWLLAQKGKKNDWKHNITQ (A5c at 2 and 7; A6c at 14; C-terminal free acid) [(A5c^2, 7, A6c^14)hGIP(1-42)-OH]
Condition not met

Quick one: YAXGTFISDYXIAXDKIHQQDFVNWLLAQKGKKNDWKHNITQ (Tic at 3; A5c at 11; A6c at 14; C-terminal free acid) [(Tic^3, A5c^11, A6c^14)hGIP(1-42)-OH]
Condition not met

Quick one: YAPGTFISDYSIAXDKIHQQDFVNWLLAQKGKKNDWKHNITQ (A6c at 14; C-terminal free acid) [(Pro^3, A6c^14)hGIP(1-42)-OH]
Condition not met

Quick one: YXEGTFXSDYSIAXDKXHQQDFVNWLLAQKGKKNDWKHNITQ (Aib at 2; A6c at 7 and 17; Nle at 14; C-terminal free acid) [(Aib^2, A6c^7, 17, Nle^14)hGIP(1-42)-OH]
Condition met

Quick one: Y[Aib]EGTF[Ac6c]SDYSIAMDKIHQQDFVNWLLAQKGKKNDWC(Psu)HNITQ-OH [[Aib^2, A6c^7, Cys(Psu)^37]hGIP(1-42)-OH]
Condition not met

Quick one: YXEGTFXSDYSIAXDKIHQQDFVNWLLAQKXKKNDWKHNITQ (Aib at 2 and 31; A6c at 7; Nle at 14; C-terminal free acid) [(Aib^2, 31, A6c^7, Nle^14)hGIP(1-42)-OH]
Condition not met

Quick one: Y[Aib]EGTF[Ac6c]SDYSIAMDKIHQQDFVNWLLAQKGKKC(Psu)DWKHNITQ-OH [[Aib^2, A6c^7, Cys(Psu)^34]hGIP(1-42)-OH]
Condition not met
